Target: Solute carrier family 22 member 12 (Homo sapiens, UniProt Q96S37)
Sequence (Q96S37 whole entry): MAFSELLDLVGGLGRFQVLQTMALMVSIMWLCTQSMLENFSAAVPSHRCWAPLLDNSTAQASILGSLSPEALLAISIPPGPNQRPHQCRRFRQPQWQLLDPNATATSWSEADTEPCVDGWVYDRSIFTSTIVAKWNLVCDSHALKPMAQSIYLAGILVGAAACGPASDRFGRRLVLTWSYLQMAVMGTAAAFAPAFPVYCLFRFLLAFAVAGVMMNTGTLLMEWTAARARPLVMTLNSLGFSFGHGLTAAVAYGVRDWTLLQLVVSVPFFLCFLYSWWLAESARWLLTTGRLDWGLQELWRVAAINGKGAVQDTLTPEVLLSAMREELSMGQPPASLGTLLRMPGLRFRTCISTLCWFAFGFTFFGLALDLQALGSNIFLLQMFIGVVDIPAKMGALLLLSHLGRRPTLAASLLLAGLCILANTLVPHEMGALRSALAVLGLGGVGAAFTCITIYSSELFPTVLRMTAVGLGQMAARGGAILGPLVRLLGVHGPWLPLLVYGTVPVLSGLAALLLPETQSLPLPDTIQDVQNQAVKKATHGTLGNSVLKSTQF
Assay: Inhibition of human URAT1 expressed in HEK293 cells assessed as inhibition of [14C]-urate uptake at 10 uM after 2 mins by beta-scintillation counting analysis
Format: cell-based
Conditions: hek293, 2 min
QUANTITY_NAME: inhibition (INH)

Completed entries (count: 4):
CCc1oc2ccccc2c1C(=O)c1cc(O)ccc1Br ... Active
CCc1oc2ccccc2c1C(=O)c1ccc(Br)c(O)c1Br ... Active
CCc1oc2ccccc2c1C(=O)c1cc(O)cc(Br)c1 ... Active
CCc1oc2ccccc2c1C(=O)c1cccc(O)c1Br ... Active

inhibition (INH) measured on CCc1oc2ccccc2c1C(=O)c1ccc(Br)c(O)c1 = Active

inhibition (INH) in this record for CCc1oc2ccccc2c1C(=O)c1cc(O)c(Br)cc1Br : Active
